- target of assay: T1, …-Biotin
- T1 sequence (peptide, C-terminal Biotin): SAKLDEESILKQ
- assay method text: Octet (BLI), fixed reagent concentration
Primed or numbered codes have the meaning given here. Where no end group is shown, it is not given here. [ ]: non-standard residue; d: D form. pS = N[C@@H](COP(=O)(O)O)C(=O)O; Biotin′ = not defined here
// reported Octet binding assay response per item
Enter the number alone.

The examples below pair each entry with its known result.
# binder, Octet binding assay response
data = [
    ("PM04 (Human/14-3-3 protein gamma) (other) MVDREQLVQKARLAEQAERYDDMAAAMKNVTELNEPLSNEERNLLSVAYKNVVGARRSSWRVISSIEQKTSADGNEKKIEMVRAYREKIEKELEAVCQDVLSLLDNYLIKNCSETQYESKVFYLKMKGDYYRYLAEVATGEKRATVVESSEKAYSEAHEISKEHMQPTHPIRLGLALNYSVFYYEIQNAPEQACHLAKTAFDDAIAELDTLNEDSYKDSTLIMQLLRDNLTLWTSDQQDDDGGEGNN", 0.1),
    ("PM17 (Human/DIDO1) (other) MTLFLSRLSTIWKGFINMQSVAKFVTKAYPVSGCFDYLSEDLPDTIHIGGRIAPKTVWDYVGKLKSSVSKELCLIRFHPATEEEEVAYISLYSYFSSRGRFGVVANNNRHVKDLYLIPLSAQDPVPSKLLPFEGPGLESPRPNIILGLVICQKIKRPANS", 0.2),
    ("PM11 (Human/TOPBP1) (other) MVYNMVMSDVTISCTSLEKEKREEVHKYVQMMGGRVYRDLNVSVTHLIAGEVGSKKYLVAANLKKPILLPSWIKTLWEKSQEKKITRYTD", 0.2),
    ("PM10 (Human/MCPH1) (other) MSGRGKKPTRTLVMTSMPSEKQNVVIQVVDKLKGFSIAPDVCETTTHVLSGKPLRTLNVLLGIARGCWVLSYDWVLWSLELGHWISEEPFELSHHFPAAPLCRSECHLSAGPYRGTLFADQPAMFVSPASSPPVAKLCELVHLCGGRVSQVPRQASIVIGPYSGKKKATVKYLSEKWVLDSITQHKVCAPENYLLSQ", 0.2),
]

Consider the additional binder presented here.
Task item: Name the recorded Octet binding assay response for PM14 (Saccharomyces cerevisiae/RAD53) (other) MEDQDGKIQGFKIPAHAPIRYTQPKSIEAETREQKLLHSNNTENVKSSKKKGNGRFLTLKPLPDSIIQESLEIQQGVNPFFIGRSEDCNCKIEDNRLSRVHCFIFKKRHAVGKSMYESPAQGLDDIWYCHTGTNVSYLNNNRMIQGTKFLLQDGDEIKIIWDKNNKFVIGFKVEINDTTGLFNEGLGMLQEQRVVLKQTAEEKDLVKKLTQMMAAQRANQPSASSSSMSAKKPPVSDTNNNGNNSVLNDLVESPINANTGNILKRIHSVSLSQSQIDPSKKVKRAKLDQTSKGPENLQFS .
Reply: 0.2
